We begin with a simple list: items and their reported koff.
Biological target: SARS-CoV-2 Spike protein receptor-binding domain (RBD) (SARS-CoV-2, UniProt P0DTC2 319-527)
Experiment: BLI (Octet), IgG1 captured on anti-human Fc sensors, RBD in solution
Give your result in s⁻¹ as a bare value.

Use the examples below as a reference point.
{"binder": "AB-11 full-length IgG1 (humanized) (antibody, V domains shown) VH: EVQLVQSGAEVKKSGESLKISCKASGYTFTTYWMHWVRQMPGKGLEWMGAIYPGNSDTQYSPSFQGQVTLSADKSISTAYLQWSSLKASDTAMYFCTREGIPQLLRTLDYWGQGTLVTVSS VL: EIVLTQSPGTLSLSPGERATLSCRASQEISGYLAWLQQKPGQAPRRLIYAASSLATGIPDRFSGSGSGTDFTLTISRLEPEDFAVYYCLQYLSYPWTFGQGTKVEIK", "unit of measure": "s⁻¹", "endpoint result": 0.00255}
{"binder": "AB-5 full-length IgG1 (antibody, V domains shown) VH: EVQLEESGTVLARPGASVKMSCKASGYTFTSYWMHWIKQRPGQGLEWIGAIYPGNGDTNYNQKFKDKAKLTAVKSTSSAYMELSSLTNEDSAVYFCTREGIPQLLNTLDVWGQGTSVTVSS VL: DILMTQSPSSLSASLGERVSLTCRASQEISGYLSWLQEKPDGTIKRLIYAASTLDSGVPKRFSGSRSGSDYSLTISSLESEDFADYYCQQYLSYPWTFGGGTKLEIK", "unit of measure": "s⁻¹", "endpoint result": 0.00341}

Next, consider the following binder.
Entry AB-12 full-length IgG1 (humanized) (antibody, V domains shown) VH: EVQLVQSGAEVKKPGESLKISCKASGYTFTTYWMHWVRQMPGKGLEWMGAIYPGNSDTRYSPSFQGQVTLSVDKSITTAYLQWNSLKASDTAMYFCTREGIPQLLRTLDYWGQGTLVTVSS VL: DIQMTQSPSSLSASVGDRVTITCRASQGISGYLSWLQQKPEKAPKRLIYAASTLQSGVPSRFSGSGSGTDFTLTISSLQPEDFATYYCQQYLSYPWTFGQGTKLEIK has what koff?
0.00366
